biological target: FAAH (Rattus norvegicus, UniProt P97612); construct: Preparation of Rat Brain Membranes Preparations (FAAH Enzyme Solution); from tissue; host or cells: rat cerebrum (brain membrane preparation); test: Determination of FAAH inhibitory activity in rat (rat brain membrane preparations, [3H]-anandamide hydrolysis); type: biochemical; conditions: rat brain membrane preparations; read-out: FAAH Inhibition IC50
Sequence (P97612 whole entry): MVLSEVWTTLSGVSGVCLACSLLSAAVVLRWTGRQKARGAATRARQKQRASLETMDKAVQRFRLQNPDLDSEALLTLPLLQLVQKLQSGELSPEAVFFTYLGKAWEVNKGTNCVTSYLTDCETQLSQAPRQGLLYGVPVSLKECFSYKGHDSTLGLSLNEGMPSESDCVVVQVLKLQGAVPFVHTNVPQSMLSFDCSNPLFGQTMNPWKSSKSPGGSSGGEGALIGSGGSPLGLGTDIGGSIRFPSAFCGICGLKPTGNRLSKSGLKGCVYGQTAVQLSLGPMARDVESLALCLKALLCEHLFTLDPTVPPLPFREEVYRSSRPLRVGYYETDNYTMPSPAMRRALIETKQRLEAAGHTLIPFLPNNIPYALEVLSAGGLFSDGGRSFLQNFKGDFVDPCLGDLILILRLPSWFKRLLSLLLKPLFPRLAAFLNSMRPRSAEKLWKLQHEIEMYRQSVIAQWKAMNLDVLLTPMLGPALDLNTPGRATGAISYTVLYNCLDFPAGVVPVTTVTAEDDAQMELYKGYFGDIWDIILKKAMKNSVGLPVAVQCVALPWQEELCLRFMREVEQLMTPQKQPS
pIC50: −log10 of the molar value.
QUANTITY_MEASURED: pIC50

> print(dat)
                                         smi  result
 1  Cn1c(=O)n(C(=O)N2CCC2)c2nc(CCc3ccc4c(c3)CCO4)ncc21    7.06
 2  CN(C)C(=O)n1c(=O)n(C)c2cnc(CCCC3CCCC3)nc21    8.22
 3  COCc1ncc2c(n1)n(C1CC1)c(=O)n2C(=O)N1CC(c2cccc(F)c2)C1    8.15
 4  Cn1c(=O)n(C(=O)N2CC(c3ccc(F)cc3)C2)c2nc(C3CC3)ncc21    8.00
 5  CN(C)C(=O)n1c(=O)n(C)c2cnc(CCCc3ccccc3)nc21    7.55
 6  CCc1ncc2c(n1)n(C)c(=O)n2C(=O)N1CC(c2ccc(F)cc2)C1    8.00
 7  CN(C)C(=O)n1c(=O)n(C)c2cnc(CCOc3ccc(Cl)cc3)nc21    7.92
 8  Cn1c(=O)n(C(=O)N2CCC2)c2nc(CCc3ccc(OCC(F)(F)F)cc3)ncc21    7.92
 9  CN(C)C(=O)n1c(=O)n(C)c2cnc(Cc3ccccc3Cl)nc21    7.51
10  CCc1ncc2c(n1)n(C)c(=O)n2C(=O)N1CC(c2ccccc2)C1    8.40

====

biological target: FAAH (Rattus norvegicus, UniProt P97612); construct: Preparation of Rat Brain Membranes Preparations (FAAH Enzyme Solution); from tissue; host or cells: rat cerebrum (brain membrane preparation); test: Determination of FAAH inhibitory activity in rat (rat brain membrane preparations, [3H]-anandamide hydrolysis); assay type: biochemical; conditions: rat brain membrane preparations; test substance 0.1 nM to 1 μM; read-out: FAAH Inhibition IC50
pIC50: −log10 of the molar value.
Where pIC50 equals or exceeds 8, the correct label is yes; where it does not, the label is no.

> print(dat)
                                         smi  label.value
 1  Cn1c(=O)n(C(=O)N2CCCC2)c2cnc(Cc3cccc(-c4ccccc4)c3)nc21           no
 2  COc1cccc(N2CCN(C(=O)n3c(=O)n(C)c4nc(-c5ccccc5)ncc43)CC2)c1           no
 3  COc1ccc(-c2ncc3c(n2)n(C(=O)N2CCC2)c(=O)n3C)cc1           no
 4  Cn1c(=O)n(C(=O)N2CCCC2)c2cnc(Cc3ccccc3)nc21          yes
 5  Cn1c(=O)n(C(=O)N2CCC2)c2cnc(Cc3ccccc3Cl)nc21           no
 6  Cn1c(=O)n(C(=O)N2CCCC2)c2cnc(-c3cccnc3F)nc21           no
 7  COc1cccc(-c2ncc3c(n2)n(C)c(=O)n3C(=O)N(C)CCc2ccc(Cl)cc2Cl)c1          yes
 8  Cn1c(=O)n(C(=O)N2CCC2)c2nc(COc3ccccc3Cl)ncc21           no
 9  CCOC(=O)CCc1ncc2c(n1)n(C)c(=O)n2C(=O)N1CCCC1           no
10  COc1ccc(Cc2ncc3c(n2)n(C)c(=O)n3C(=O)N2CCC2)cc1           no
11  CCN(C)C(=O)n1c(=O)n(C)c2cnc(-c3cccc(C)c3)nc21           no
12  CC(=O)c1ccc(-c2ncc3c(n2)n(C)c(=O)n3C(=O)N2CCCC2)cc1          yes
13  CCN(CC)C(=O)n1c(=O)n(C)c2nc(-c3cccc(OC)c3)ncc21           no
14  COc1cncc(-c2ncc3c(n2)n(C(=O)N2CCCC2)c(=O)n3C)c1           no
15  COc1ccc(Cc2ncc3c(n2)n(C(=O)N2CCCC2)c(=O)n3C)cc1           no
16  COCc1ncc2c(n1)n(C)c(=O)n2C(=O)N1CC(COc2ccc(F)cc2)C1          yes
17  COCc1ncc2c(n1)n(C)c(=O)n2C(=O)N1CC[C@H](Oc2ccccc2)C1           no
18  COCCCc1ncc2c(n1)n(C)c(=O)n2C(=O)N1CC(c2cccc(F)c2)C1          yes
19  COCc1ncc2c(n1)n(C)c(=O)n2C(=O)N1CC(c2ccc(F)c(C)c2)C1          yes
20  Cn1c(=O)n(C(=O)N2CCCC2)c2cnc(Cc3ccc(C#N)cc3)nc21           no
21  Cn1c(=O)n(C(=O)N2CCCC2)c2nc(Cc3ccccc3)ncc21           no
22  CN(CCc1ccc(Cl)cc1)C(=O)n1c(=O)n(C)c2nc(-c3cccnc3)ncc21          yes

====

target: FAAH (Rattus norvegicus); construct: Preparation of Rat Brain Membranes Preparations (FAAH Enzyme Solution); from tissue; host or cells: rat cerebrum (brain membrane preparation); assay: Determination of FAAH inhibitory activity in rat (rat brain membrane preparations, [3H]-anandamide hydrolysis); assay type: biochemical; conditions: rat brain membrane preparations; 100 nM test substance; read-out: FAAH Inhibition, Inhibition Rate at 100 nM
Where inhibition at 0.1 µM equals or exceeds 80%, the correct label is yes (1); where it does not, the label is no (0).

> print(dat)
                                    molecule             tested.target  label.value
 1  CN(C)C(=O)n1c(=O)n(C)c2cnc(-c3cccc(OCC(F)F)c3)nc21 [Example 335]  FAAH (Rattus norvegicus)       no (0)
 2  CN(CCc1ccc(Cl)cc1)C(=O)n1c(=O)n(C)c2nc(-c3ccnc(F)c3)ncc21 [Example 222]  FAAH (Rattus norvegicus)      yes (1)
 3  COc1cccc(-c2ncc3c(n2)n(C)c(=O)n3C(=O)N(C)CCOCC2CC2)c1 [Example 116]  FAAH (Rattus norvegicus)      yes (1)
 4  Cn1c(=O)n(C(=O)N2CCCC2)c2nc(-c3ccccc3F)ncc21 [compound 225]  FAAH (Rattus norvegicus)       no (0)
 5  CCN(C)C(=O)n1c(=O)n(C)c2nc(-c3ccncc3)ncc21 [Example 220]  FAAH (Rattus norvegicus)      yes (1)
 6  Cn1c(=O)n(C(=O)N2CCCC2)c2nc(Cc3ccccc3F)ncc21 [Example 300]  FAAH (Rattus norvegicus)      yes (1)
 7  CCc1cccc(OCc2ncc3c(n2)n(C(=O)N(C)C)c(=O)n3C)c1 [Example 413]  FAAH (Rattus norvegicus)      yes (1)
 8  COc1ccc(CN(C)C(=O)n2c(=O)n(C)c3nc(-c4cccc(OC)c4)ncc32)cc1 [Example 80]  FAAH (Rattus norvegicus)      yes (1)
 9  Cn1c(=O)n(C(=O)N2CCC(CCc3ccc(Cl)cc3)CC2)c2cnc(-c3ccncc3)nc21 [Example 152]  FAAH (Rattus norvegicus)      yes (1)
10  Cn1c(=O)n(C(=O)N2CCC2)c2nc(COc3cccc(F)c3)ncc21 [Example 420]  FAAH (Rattus norvegicus)       no (0)
11  CC(=O)c1ccc(N2CCN(C(=O)n3c(=O)n(C)c4nc(-c5ccccc5)ncc43)CC2)cc1 [Example 133]  FAAH (Rattus norvegicus)      yes (1)
12  CN(C)C(=O)n1c(=O)n(C)c2cnc(-c3cccc(OCc4ccccc4)c3)nc21 [compound 327]  FAAH (Rattus norvegicus)       no (0)
13  COc1cncc(-c2ncc3c(n2)n(C)c(=O)n3C(=O)N2CCCC2)c1 [compound 208]  FAAH (Rattus norvegicus)      yes (1)
14  Cc1ccc(Cc2ncc3c(n2)n(C(=O)N2CCCC2)c(=O)n3C)cc1 [Example 289]  FAAH (Rattus norvegicus)      yes (1)
15  CCCc1ncc2c(n1)n(C)c(=O)n2C(=O)N(C)CCc1ccc(Cl)cc1 [Example 154]  FAAH (Rattus norvegicus)      yes (1)
16  CN(C)C(=O)n1c(=O)n(C)c2cnc(CCc3cccc(OCC(F)F)c3)nc21 [Example 530]  FAAH (Rattus norvegicus)       no (0)
17  Cn1c(=O)n(C(=O)N2CCC2)c2nc(-c3ccc(OCC(F)F)cc3)ncc21 [compound 368]  FAAH (Rattus norvegicus)      yes (1)
18  COCc1ncc2c(n1)n(C)c(=O)n2C(=O)N1CC(c2ccc(F)c(C)c2)C1 [Example 455]  FAAH (Rattus norvegicus)      yes (1)
19  COc1cccc(CCc2ncc3c(n2)n(C)c(=O)n3C(=O)N2CCCC2)c1 [compound 15]  FAAH (Rattus norvegicus)       no (0)
20  Cc1ccccc1OCc1ncc2c(n1)n(C(=O)N1CCC1)c(=O)n2C [Example 416]  FAAH (Rattus norvegicus)       no (0)

// provenance: patent US8735406B2
